endpoint-name: melting point

Before answering, review these 5 worked examples.
COC(=O)c1ccccc1S(=O)(=O)NC(=O)Nc1nc(C)cc(OC(F)F)n1 : 162 to 164 °C
CC(=O)Nc1nc(CCCl)cs1 : 161 to 163 °C
CC(N)=CC(=O)C1CNC(C)S1(=O)=O (stereo unspecified) : 113 to 115 °C
Cc1c(Cl)cccc1S(=O)(=O)Nc1ccc2c(c1)nc(C)n2C : 283 to 284 °C
CCCSCc1cc2oc(S(N)(=O)=O)cc2cn1 : 171 to 172 °C

# batch: return melting point for each of the 4 compounds below
1. CC(=O)OCOC(=O)COC(=C1C(=O)N(C(N)=O)c2cc(Cl)c(F)cc21)c1cccs1
2. N#Cc1nn(-c2c(Cl)cc(C(F)(F)F)cc2Cl)c(N)c1C1(C(F)(F)F)CC1
3. CSCc1noc(C(C)c2ccc(-c3ccccc3)c(F)c2)n1 (stereo unspecified)
4. CC(=O)N1Cc2c(-c3nc(C4CC4)no3)ncn2-c2ccccc21

["176 to 177 °C", "178 to 179 °C", "55.5 to 56 °C", "202 °C"]

# batch: return melting point for each of the 4 compounds below
1. COc1cc(OC)cc(-c2nn(C(C)c3oc4ccccc4c(=O)c3-c3cccc(F)c3)c3ncnc(N)c23)c1 (stereo unspecified)
2. CC(C)C(=O)N1C2=NCCN2C(=O)c2nc(C(C)C)[nH]c21
3. COc1cc(OC)nc(SCc2nc(C(F)(F)F)ccc2C(=O)O)n1
4. O=C(O)c1cc(Br)ccc1COc1ccc(Br)cc1

1. 224 to 227 °C
2. 271 to 273 °C
3. 123 to 124 °C
4. 214 to 215 °C

# batch: return melting point for each of the 8 compounds below
1. Cc1nc(Cl)c(-c2ccc(Cl)cc2)c(NS(=O)(=O)c2ccc(Cl)cc2)n1
2. Cc1nn(-c2cncnc2)cc1N
3. NC(=O)CNCc1noc([C@H](CCCC2CCCCC2)CC(=O)NO)n1
4. CS(=O)(=O)c1ccc(/C(=C(\CCO)C(=O)O)c2ccc(Cl)cc2)cc1
5. CCOC(=O)c1nc(C2CC2)nc(N)c1/C=C/[Si](C)(C)C
6. CC1=CCC2(C)C(CCC3C4CCC(O)C4(C)CCC32)C1 (stereo unspecified)
7. CCC1(C)CC(N(CCN(C(C)=O)C2CC(C)(CC)NC(C)(CC)C2C)C(C)=O)C(C)C(C)(CC)N1 (stereo unspecified)
8. CCOC(=O)Oc1ccc(S(=O)(=O)N2c3cc(C(F)(F)F)ccc3-n3cccc3C2CC)cc1 (stereo unspecified)

196 to 197 °C
211 to 215 °C
60 to 70 °C
144 to 145 °C
99 to 101 °C
128 to 130 °C
173 to 175 °C
88 to 90 °C

---

Kindly supply the reported melting point values for the records listed here.

Before answering, review these 5 worked examples.
COc1ccc(C2CNC(=O)O2)cc1OCc1ccccc1 (stereo unspecified) : 83 to 91 °C
O=C(O)c1cc2cc3c(cc2oc1=O)OCO3 : 279 to 280 °C
CC(C)c1nn2ccccc2c1SC#N : 91 to 92.5 °C
CCOC(=O)/C=C/c1cn(Cc2ccc(OCc3nc(-c4ccccc4)oc3C)cc2)nc1OCc1ccc(OCc2nc(-c3ccccc3)oc2C)cc1 : 148 to 149 °C
CC(C)(C)OC(=O)N[C@@H](Cc1ccc(O)cc1)C(=O)NCC(=O)NCC(=O)O : 92 to 94 °C

# batch: return melting point for each of the 7 compounds below
1. CS(=O)(=O)c1ccc(OCc2ccccc2)c(C=O)c1
2. CC(C)(C)c1cnc(C(=O)Nc2cc(-c3cc(Nc4ccc(-c5ccncc5)nn4)c(=O)[nH]n3)ccc2F)cn1
3. COc1ccc(CN(C)CCCOc2ccc(NC(=O)c3cccc4c(=O)c5cccc(C)c5[nH]c34)c(C)c2)cc1OC
4. CCOC(=O)c1ccc(F)c([N+](=O)[O-])c1
5. O=[N+]([O-])c1ccc(S(=O)(=O)c2ncc(Cl)cn2)s1
6. CCOC(=O)NCCOc1ccc(Oc2cc(F)cc(F)c2)cc1
7. c1nc2cc3c(cc2[nH]1)OCO3

129 °C
> 300 °C
146 °C
50 °C
144 to 146 °C
54 to 56 °C
155 to 156 °C

# batch: return melting point for each of the 5 compounds below
1. O=C(Nc1c(C(O)(C(F)(F)F)C(F)(F)F)ccc2ccccc12)C1CC1
2. Clc1cc(Cl)n2c(-c3cccs3)ncc2n1
3. CNC(=S)n1ncnc1N
4. O=C(O)c1cc(OCC(F)(F)F)c(Cl)cc1[N+](=O)[O-]
5. Cc1cc(-c2nc3cccnn3c2-c2ccnc(NC(=O)NC(C)C)c2)ccc1F

1: 163 to 165 °C; 2: 152 to 153 °C; 3: 184 to 185 °C; 4: 153 to 155 °C; 5: 232 to 233 °C

# batch: return melting point for each of the 3 compounds below
1. COc1ccc(C(=O)CC(=O)Nc2ccc(C)cc2)cc1
2. COc1cccc(CCNC(=O)c2nc(N)sc2-c2ccncc2)c1OC
3. CC(=O)c1c(C)[nH]c(-c2ccccc2C)c1NCc1ccc(Cl)cc1

["122 to 126 °C", "167 to 168 °C", "167 to 170 °C"]

The measured melting point associated with O=C1c2ccccc2C(=O)N1CCCCc1ccc(S(=O)(=O)Cl)cc1 reads 122 to 125 °C
